In this section we review reported IRF reporter values for a set of compounds.
system: RAW-Dual (murine macrophage reporter line); test: IRF reporter (Lucia luciferase) activity fold change vs agonist alone; higher = enhanced IRF activity; conditions: modulator concentration 10 µM; agonist: 3'3'-cGAMP 10 ug/mL
Give only the figure.

* CCS(=O)(=O)c1ccc(-c2cccc(NC(=O)CC3CCCC3)c2)nn1 | 0.905

Challenge: Using the record for CCOc1ccccc1OCCCCOc1cccc(Cl)c1 , report its IRF reporter.
Response given: 0.956

Challenge: Using the record for O=C1CN(/N=C/c2ccc([N+](=O)[O-])o2)C(=O)N1 , report its IRF reporter.
Response given: 0.821

Challenge: Using the record for O=C(O)c1cc(S(=O)(=O)N2CCCCC2)c(Cl)cc1Cl , report its IRF reporter.
Response given: 0.912

Challenge: Using the record for Oc1ccc(-c2cnc(-c3ccc(O)cc3)nc2)cc1 , report its IRF reporter.
Response given: 0.347

Challenge: Using the record for CC(C)(C)CC(=O)Nc1nc2ccc(S(C)(=O)=O)cc2s1 , report its IRF reporter.
Response given: 0.787

Challenge: Using the record for COc1ccc(C2N3CC4(C)CN2CC(C)(C3)C4O)cc1 (stereo not given) , report its IRF reporter.
Response given: 0.995

Challenge: Using the record for CC(C)COc1ccc(CNC(=O)N(Cc2ccc(F)cc2)C2CCN(C)CC2)cc1.CC(C)COc1ccc(CNC(=O)N(Cc2ccc(F)cc2)C2CCN(C)CC2)cc1.O=C(O)[C@H](O)[C@@H](O)C(=O)O , report its IRF reporter.
Response given: 0.0542

Challenge: Using the record for CC(C)(C)C(=O)C(Oc1ccc(Cl)cc1)n1ccnc1 (stereo not given) , report its IRF reporter.
Response given: 1.07

Challenge: Using the record for COC(=O)C1=C(C)NC(=Cc2c(F)cccc2Cl)C1=O , report its IRF reporter.
Response given: 0.876
